- ASSAYED_TARGET: T1, human IGSF11 (VSIG3) expressed on the surface of cells (human, UniProt Q5DX21 23-431)
- T1 construct: one molecule for all cell lines; the cell line is named under assay; also called IGSF11-expressing cells; HEK-OE
- T1 sequence: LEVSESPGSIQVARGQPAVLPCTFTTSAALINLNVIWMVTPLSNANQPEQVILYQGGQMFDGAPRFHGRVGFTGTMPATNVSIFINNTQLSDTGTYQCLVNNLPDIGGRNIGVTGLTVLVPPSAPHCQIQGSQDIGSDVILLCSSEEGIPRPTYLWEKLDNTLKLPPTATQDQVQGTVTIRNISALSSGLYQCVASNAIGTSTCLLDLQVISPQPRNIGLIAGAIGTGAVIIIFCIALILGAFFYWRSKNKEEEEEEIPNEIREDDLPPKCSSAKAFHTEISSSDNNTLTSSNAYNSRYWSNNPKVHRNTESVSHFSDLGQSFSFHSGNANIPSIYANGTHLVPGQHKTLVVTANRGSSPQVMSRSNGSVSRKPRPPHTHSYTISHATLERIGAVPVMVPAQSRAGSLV
- TEST_SUMMARY: FACS, IgG1 format, recombinant HEK cells expressing IGSF11 (HEK-OE)
pEC50: −log10 of the molar value.
Measured pEC50, listed per entry for reference.

Worked set:
| BINDER | ASSAY_VALUE |
| --- | --- |
| A-006 (human IgG1 format) (antibody, V domains shown, human IgG1 format) VH: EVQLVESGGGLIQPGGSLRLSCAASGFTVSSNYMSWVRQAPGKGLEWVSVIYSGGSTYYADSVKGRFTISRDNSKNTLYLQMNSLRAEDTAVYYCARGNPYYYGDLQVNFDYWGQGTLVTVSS VL: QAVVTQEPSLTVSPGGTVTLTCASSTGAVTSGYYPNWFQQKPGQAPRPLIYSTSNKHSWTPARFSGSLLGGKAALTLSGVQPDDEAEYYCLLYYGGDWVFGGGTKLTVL | 7.30 to 8.00 |
| A-022 (human IgG1 format) (antibody, V domains shown, human IgG1 format) VH: EVQLLESGPGLVKPSQTLSLTCTVSGGSISSGGYYWSWIRQHPGKGLEWIGYIYYSGSTYYNPSLKSRVTISVDTSKNQFSLKLSSVTAADTAVYYCARASRSTDYYFDYWGQGTLVTVSS VL: QPGLTQPPSMSYGLGQTATLTCTGNRNNIGDQGAAWLQQHQGHPPKLLSYRNNNGPSGISERLSASRSGNTASLTISGLQPEDEADYYCSAWDSSLRAWVFGGGTKLTVL | 7.30 to 8.00 |
| A-012 (human IgG1 format) (antibody, V domains shown, human IgG1 format) VH: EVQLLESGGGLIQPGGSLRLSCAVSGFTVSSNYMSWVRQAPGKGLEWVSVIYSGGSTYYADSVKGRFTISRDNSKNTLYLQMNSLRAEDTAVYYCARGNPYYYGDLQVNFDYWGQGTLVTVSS VL: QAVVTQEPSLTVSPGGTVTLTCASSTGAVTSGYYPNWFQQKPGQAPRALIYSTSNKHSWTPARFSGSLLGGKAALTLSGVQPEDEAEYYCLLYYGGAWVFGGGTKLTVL | 7.30 to 8.00 |
| B-001 (chain-swapped, human IgG1 format) (antibody, V domains shown, VH of A-012 with VL of A-013; IgG1 format; also called B1; Chains-B-001) VH: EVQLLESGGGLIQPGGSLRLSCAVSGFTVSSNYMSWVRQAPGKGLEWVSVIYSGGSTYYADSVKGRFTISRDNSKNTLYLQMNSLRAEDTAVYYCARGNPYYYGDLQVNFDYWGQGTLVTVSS VL: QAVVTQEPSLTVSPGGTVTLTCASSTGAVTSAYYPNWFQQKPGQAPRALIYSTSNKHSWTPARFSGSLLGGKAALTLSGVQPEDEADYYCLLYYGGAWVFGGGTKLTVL | 7.30 to 8.00 |

Recorded pEC50 (binder B-002 (chain-swapped, human IgG1 format) (antibody, V domains shown, VH of A-006 with VL of A-012; IgG1 format; also called B2; Chains-B-002) VH: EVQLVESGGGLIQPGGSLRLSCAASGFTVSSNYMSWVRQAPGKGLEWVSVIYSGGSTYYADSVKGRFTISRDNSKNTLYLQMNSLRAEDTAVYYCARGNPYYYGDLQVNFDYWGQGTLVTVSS VL: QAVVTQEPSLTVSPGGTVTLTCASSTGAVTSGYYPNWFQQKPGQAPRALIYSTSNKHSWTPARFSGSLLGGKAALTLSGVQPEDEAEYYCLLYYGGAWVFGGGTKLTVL ): 7.30 to 8.00

Just for reference, patent US20210061908A1 is where these values come from.
